biological target: PI3Kα (Homo sapiens (Human), UniProt P42336); assay: PI3K alpha isoform inhibition; type: biochemical
Sequence (P42336 whole entry, canonical isoform): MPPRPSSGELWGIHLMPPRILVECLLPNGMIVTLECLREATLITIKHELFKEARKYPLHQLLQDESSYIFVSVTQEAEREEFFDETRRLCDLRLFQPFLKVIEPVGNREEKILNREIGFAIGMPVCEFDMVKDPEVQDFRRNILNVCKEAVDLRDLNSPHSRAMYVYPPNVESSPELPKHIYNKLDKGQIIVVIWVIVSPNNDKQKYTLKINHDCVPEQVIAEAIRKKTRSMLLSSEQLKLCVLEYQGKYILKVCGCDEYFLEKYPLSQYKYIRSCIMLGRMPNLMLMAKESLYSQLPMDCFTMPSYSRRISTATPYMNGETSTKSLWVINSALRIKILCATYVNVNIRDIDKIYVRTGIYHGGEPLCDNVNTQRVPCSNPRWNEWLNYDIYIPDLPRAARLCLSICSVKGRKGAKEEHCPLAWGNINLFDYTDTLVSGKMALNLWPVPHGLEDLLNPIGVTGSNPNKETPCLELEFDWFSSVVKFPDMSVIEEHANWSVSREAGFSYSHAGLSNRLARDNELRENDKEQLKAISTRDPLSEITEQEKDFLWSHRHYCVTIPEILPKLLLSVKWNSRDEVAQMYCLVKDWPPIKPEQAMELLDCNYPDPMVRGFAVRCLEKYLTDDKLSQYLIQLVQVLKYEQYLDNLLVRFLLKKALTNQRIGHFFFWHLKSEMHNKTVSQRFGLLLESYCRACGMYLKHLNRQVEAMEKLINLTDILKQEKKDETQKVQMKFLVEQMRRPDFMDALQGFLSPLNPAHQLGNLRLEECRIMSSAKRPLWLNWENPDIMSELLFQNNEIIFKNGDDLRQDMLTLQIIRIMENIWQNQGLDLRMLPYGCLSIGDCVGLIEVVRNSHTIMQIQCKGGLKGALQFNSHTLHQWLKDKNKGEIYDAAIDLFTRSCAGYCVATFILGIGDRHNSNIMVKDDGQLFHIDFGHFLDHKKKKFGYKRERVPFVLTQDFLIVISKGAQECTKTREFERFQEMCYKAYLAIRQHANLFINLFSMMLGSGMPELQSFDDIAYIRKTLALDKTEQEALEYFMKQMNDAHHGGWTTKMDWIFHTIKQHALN
Sequence (P27986 whole entry partner, canonical isoform): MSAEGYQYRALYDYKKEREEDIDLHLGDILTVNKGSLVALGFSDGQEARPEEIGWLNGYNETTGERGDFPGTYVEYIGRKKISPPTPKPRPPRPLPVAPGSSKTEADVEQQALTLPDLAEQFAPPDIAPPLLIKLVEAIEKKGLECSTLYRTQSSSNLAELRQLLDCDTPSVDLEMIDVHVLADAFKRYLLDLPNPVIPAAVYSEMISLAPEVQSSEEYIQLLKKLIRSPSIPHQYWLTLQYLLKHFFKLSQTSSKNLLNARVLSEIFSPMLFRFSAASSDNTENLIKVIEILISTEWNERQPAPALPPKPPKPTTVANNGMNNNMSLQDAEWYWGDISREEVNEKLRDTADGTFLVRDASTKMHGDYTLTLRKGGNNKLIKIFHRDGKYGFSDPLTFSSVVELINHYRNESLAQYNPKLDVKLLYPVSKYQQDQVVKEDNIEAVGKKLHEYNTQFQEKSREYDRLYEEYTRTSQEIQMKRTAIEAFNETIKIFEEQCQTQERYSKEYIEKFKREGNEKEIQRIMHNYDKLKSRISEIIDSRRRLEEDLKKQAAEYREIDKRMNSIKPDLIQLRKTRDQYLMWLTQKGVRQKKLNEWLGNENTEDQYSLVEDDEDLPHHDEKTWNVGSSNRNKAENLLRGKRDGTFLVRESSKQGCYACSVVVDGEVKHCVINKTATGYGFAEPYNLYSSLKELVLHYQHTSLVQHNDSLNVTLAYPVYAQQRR
pIC50: −log10 of the molar value.
If the reported pIC50 equals or exceeds 6, assign label 1. If not, assign label 0.

                                   compound  class_name
0  O=C(Nc1cccc(-c2csc3c(=O)cc(N4CCOCC4)oc23)c1)Nc1ccc(Cl)c(C(F)(F)F)c1 [Cmpd 123]     label 0
1  O=C(O)c1ccc(-c2csc3c(=O)cc(N4CCOCC4)oc23)cc1 [Cmpd 100]     label 1
2       O=c1cc(N2CCOCC2)oc2ccsc12 [Cmpd 10]     label 0
3  Cc1sc2c(c1C)C(c1ccc(Cl)cc1)=N[C@@H](CC(=O)OC(C)(C)C)c1nnc(C)n1-2 [JQ-1]     label 0
4  O=c1cc(N2CCSCC2)oc2c(Br)csc12 [Cmpd 127]     label 0
5  O=C(Nc1ccc(-c2csc3c(=O)cc(N4CCOCC4)oc23)cc1)c1ccncc1 [Cmpd 120]     label 1
6  O=C(NO)c1ccc(-c2csc3c(=O)cc(N4CCOCC4)oc23)cc1 [Cmpd 118]     label 1
7  O=c1cc(N2CCSCC2)oc2c(-c3ccc4c(c3)OCCO4)csc12 [Cmpd 124]     label 0

Cited source for all entries: patent US9505780B2
